Tested on: KB
assay-details: Cytotoxicity against human KB cells
Type: functional, cell-based
endpoint: pIC50
The value called pIC50 is obtained by taking minus log10 of the concentration in mol/L.

Notebook: CCCC(=O)N[C@@H](C(C)C)[C@H](CC(=O)OC[C@@H](O)c1nc(C(=O)O[C@@H](CCCC(C)(Cl)Cl)[C@@H](C)C(=O)O[C@@H](c2nc(C(=O)OC)cs2)[C@](C)(O)CC)cs1)OC(C)=O [LYNGBYABELLIN D] , pIC50 read as 7.00

Notebook: CC[C@H](C)[C@@H](C(=O)N1CCC[C@H]1c1nccs1)N(C)C(=O)[C@H](CC(C)C)N(C)C(=O)[C@H](Cc1ccc(O)cc1)N(C)C(=O)/C=C(\C)OC [15-NORLYNGBYAPEPTIN A] , pIC50 read as 5.89
